Tested on: THP-1 cells
Assay: Combination and synergy of compounds with DEX, CXCL8 release by TNF stimulated THP-1 cells
Format: cell-based, human
Details: Homo sapiens; TNF stimulated THP-1 cells, single agents (FIG. 5A); read-out: IC50 for TNF stimulated CXCL8 release (titration with DEX)
READOUT TYPE: IC50 (µM)
Give bare numbers, in µM.

Task: Looking for the measured IC50 of C[C@@H]1C[C@H]2[C@@H]3CCC4=CC(=O)C=C[C@]4(C)[C@@]3(F)[C@@H](O)C[C@]2(C)[C@@]1(O)C(=O)CO [DEX, dexamethasone, reference compound] , can you help?
Result: 0.3
